TARGET_ENTITY: galectin-3 (Homo sapiens, UniProt P17931)
Construct: recombinant human galectin-3, GST-purified with the GST tag removed
Sequence (P17931 2-250): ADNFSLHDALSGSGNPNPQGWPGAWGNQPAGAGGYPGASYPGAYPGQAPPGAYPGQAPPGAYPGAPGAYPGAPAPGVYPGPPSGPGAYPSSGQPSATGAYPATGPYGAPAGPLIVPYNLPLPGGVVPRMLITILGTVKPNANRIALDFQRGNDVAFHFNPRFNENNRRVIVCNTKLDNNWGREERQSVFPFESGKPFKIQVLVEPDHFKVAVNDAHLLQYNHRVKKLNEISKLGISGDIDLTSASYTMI
PROTOCOL_DETAILS: intrinsic tryptophan fluorescence lifetime titration (direct waveform recording, excitation at […] nm), fit with n = […]
RECORDED_ENDPOINT: Kd (µM)

[[record]]
molecule = "COC1O[C@H](CO)[C@@H](O[C@@H]2O[C@H](CO)[C@H](O)[C@H](O)[C@H]2O)[C@H](O)[C@H]1O (stereo partly shown)"
target_entity = "galectin-3 (Homo sapiens, UniProt P17931)"
recorded_endpoint = "Kd"
val = 54

